# Tested on: RXF 631
# measurement.description: NCI tumour cell line growth inhibition, 48 h
Active and inactive are the calls of the source. Cut-off read from the data, not from the text of the source: active = GI50 up to about 1.1 µM and inactive = higher.
Select the matching outcome among active, inactive

Exercise: Could you check what this test reported for COc1ccc(Oc2ccccc2N)cc1 ?
Solution: inactive

Exercise: Could you check what this test reported for CC1=C(C(=O)Nc2ccccc2)C(c2cc(Cl)cc(Cl)c2)C(C(=O)Nc2ccccc2)=C(C)N1 ?
Solution: inactive

Exercise: Could you check what this test reported for Cc1cnc2c(c1)C(=O)C1=C(OC(C)(C)CC1O)C2=O (stereo unspecified) ?
Solution: inactive

Exercise: Could you check what this test reported for C=CCNC1=NC(=O)C(CC(=O)Nc2ccc([N+](=O)[O-])cc2[N+](=O)[O-])S1 (stereo unspecified) ?
Solution: inactive

Exercise: Could you check what this test reported for CSC1=Nc2ccccc2N=C(c2ccccc2)C1 ?
Solution: inactive

Exercise: Could you check what this test reported for CC(=O)NC1C(OCc2ccccc2)OC(COC(=O)CCCCCNc2ccc([N+](=O)[O-])c3[nH]c4ccc(O)cc4c(=O)c23)C(O)C1OC(C)C(=O)N[C@@H](C)C(=O)N[C@H](CCC(=O)OCc1ccccc1)C(N)=O (stereo partly specified) ?
Solution: active

Exercise: Could you check what this test reported for COC(=O)C(C(=O)C(=O)Nc1cccc(C)c1)C1=NC(N)SS1 (stereo unspecified) ?
Solution: inactive

Exercise: Could you check what this test reported for C=CC1(C)CC(=O)C2(O)C(C)(O1)C(OC(C)=O)C(O)C1C(C)(C)CCC(O)C12C (stereo unspecified) ?
Solution: inactive

Exercise: Could you check what this test reported for N#C/N=C(\N)NCCO ?
Solution: inactive

Exercise: Could you check what this test reported for COc1ccc(C(=O)CC(=O)C(=O)Nc2ccc(C)c(C)c2)cc1 ?
Solution: inactive

Exercise: Could you check what this test reported for O=C(Nc1cc(Cl)ccc1Cl)C(=O)C(c1cnc2ccccc2n1)[N+](=O)[O-] (stereo unspecified) ?
Solution: inactive

---

# System: SNB-78
# measurement.description: NCI tumour cell line growth inhibition, 48 h
Active and inactive are the calls of the source. Rule as the data show it: active = GI50 up to about 1.1 µM and inactive = higher.
property.label: GI50

Exercise: Identify measured GI50 corresponding to O=C(c1ccccc1)C1CCCCN1C(=O)c1ccccc1 (centres undefined)
Solution: > 100 µM (inactive)

Exercise: Identify measured GI50 corresponding to C/C(=N/OCCC(=O)O)C1CC1
Solution: > 100 µM (inactive)

Exercise: Identify measured GI50 corresponding to CCCCCCCCCCCCCC(=O)O[C@H]1CC[C@H](NC(=O)[C@H](OC)[C@H](O)[C@@H](O)[C@H](O)/C=C/C(C)C)C(=O)NC1 [BENGAMIDE A]
Solution: > 10 µM (inactive)

Exercise: Identify measured GI50 corresponding to COc1ccc(CNc2cnc3cc(N)ccc3n2)cc1
Solution: > 100 µM (inactive)

Exercise: Identify measured GI50 corresponding to O=C(OCC1CO1)c1cccs1 (centres undefined)
Solution: > 100 µM (inactive)

Exercise: Identify measured GI50 corresponding to COc1cc(/C=C\c2ccc(O)cc2)cc(OC)c1OC
Solution: 3.96 µM (inactive)

Exercise: Identify measured GI50 corresponding to COc1cc2c(cc1OC)C(C(c1ccccc1)c1ccccc1)N(C)CC2 (centres undefined)
Solution: > 100 µM (inactive)

Exercise: Identify measured GI50 corresponding to OCC1C(/C=C/c2ccoc2)ON2CCCC12 (centres undefined)
Solution: > 100 µM (inactive)

Exercise: Identify measured GI50 corresponding to CCCCCCCCCCCCCC(=O)NO
Solution: 19.8 µM (inactive)
